Ref: the supplement of paper PMC3334620

Target: Yer064c (UniProt P40041)
Sequence: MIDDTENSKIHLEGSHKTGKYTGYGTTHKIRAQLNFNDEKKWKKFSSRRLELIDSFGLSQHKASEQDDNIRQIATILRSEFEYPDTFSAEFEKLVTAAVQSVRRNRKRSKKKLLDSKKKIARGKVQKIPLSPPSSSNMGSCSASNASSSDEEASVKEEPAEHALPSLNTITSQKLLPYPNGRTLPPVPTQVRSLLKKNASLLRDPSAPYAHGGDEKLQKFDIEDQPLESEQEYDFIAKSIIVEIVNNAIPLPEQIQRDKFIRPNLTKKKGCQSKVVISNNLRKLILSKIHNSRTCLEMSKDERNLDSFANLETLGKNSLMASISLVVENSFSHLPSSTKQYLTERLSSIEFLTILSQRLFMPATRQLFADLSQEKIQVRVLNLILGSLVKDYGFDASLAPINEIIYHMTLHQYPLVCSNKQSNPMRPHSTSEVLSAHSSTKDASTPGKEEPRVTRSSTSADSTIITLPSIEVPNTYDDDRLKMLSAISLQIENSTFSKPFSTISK
Experiment: PBM E-score (8-mer binding enrichment) (E-score (-0.5 to 0.5)); higher = stronger / more preferred TF binding
Conditions: protein concentration: 200 nM; construct: GST-full length
In all, about 33,000 sequences were measured (“E-score (-0.5 to 0.5)”: median about -0.036, highest 2% from about 0.37 on). The full list was thinned out, with the highest values kept by preference.
property.measured: PBM E-score
Form rule: numeric answer, no unit written next to it.

Measured PBM E-score of AGACACTG : 0.0291

Measured PBM E-score of GGTATCAA : 0.0678

Measured PBM E-score of GATCACGC : 0.18

Measured PBM E-score of CATGAGAC : 0.322

Measured PBM E-score of AATCATAG : 0.433

Measured PBM E-score of AAGATGCC : -0.214

Measured PBM E-score of ACCATACT : 0.0817

Measured PBM E-score of CCGTCACA : -0.22

Measured PBM E-score of ATTCACTG : 0.138

Measured PBM E-score of CCTGCGCA : -0.352

Measured PBM E-score of AATTCGGT : 0.107

Measured PBM E-score of AGTCGCAC : 0.353

Measured PBM E-score of CATCACGA : 0.132

Measured PBM E-score of AGTTGCCC : 0.00742

Measured PBM E-score of AGGGGGTC : -0.406

Measured PBM E-score of GAACCGTC : -0.209

Measured PBM E-score of CGGTCACA : -0.132

Measured PBM E-score of GGTCACTA : -0.234

Measured PBM E-score of GTACTTAA : 0.123

Measured PBM E-score of CATGAGTC : 0.481

Measured PBM E-score of CCGCTTAC : 0.026

Measured PBM E-score of ATCGAGCA : -0.149

Measured PBM E-score of GATCATAC : -0.0115

Measured PBM E-score of AATCATAT : 0.428

Measured PBM E-score of AATGAGTG : 0.249

Measured PBM E-score of GCTAAAAA : 0.0668

Measured PBM E-score of ATTCACTC : 0.0742
